Give fold change of affinity for every item shown.
Target: T1, Human CD137 ECD (human)
T1 construct: entry includes C-terminal His-tag and biotin acceptor peptide; also called human CD137 extracellular domain; 4-1BB
T1 sequence (chain, as listed by the source limits assumed): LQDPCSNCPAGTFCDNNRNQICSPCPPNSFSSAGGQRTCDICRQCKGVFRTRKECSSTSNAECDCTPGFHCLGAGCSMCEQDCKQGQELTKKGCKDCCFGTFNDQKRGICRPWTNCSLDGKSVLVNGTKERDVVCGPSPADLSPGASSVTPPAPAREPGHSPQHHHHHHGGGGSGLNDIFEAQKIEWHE
Assay: Biacore SPR, vs parent H183/L072
Please give a number only; it is taken to be in fold.

INPUT: Field request: fold change of affinity | item: H183/L072 VL R54K (antibody, name in Kabat numbering, V domains shown, Dual-Ig) VH: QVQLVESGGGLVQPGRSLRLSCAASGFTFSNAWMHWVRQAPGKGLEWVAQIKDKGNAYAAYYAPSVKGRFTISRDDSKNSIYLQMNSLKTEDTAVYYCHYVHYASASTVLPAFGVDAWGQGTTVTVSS VL: DIVMTQSPLSLPVTPGEPASISCQASQELVHMNRNTYLHWYQQKPGQAPRLLIYKVSNKFPGVPDRFSGSGSGTDFTLKISRVEAEDVGVYYCAQGTSVPFTFGQGTKLEIK
OUTPUT: 1

INPUT: Fill in the blank: the reported fold change of affinity of H183/L072 VL F55K (antibody, name in Kabat numbering, V domains shown, Dual-Ig) VH: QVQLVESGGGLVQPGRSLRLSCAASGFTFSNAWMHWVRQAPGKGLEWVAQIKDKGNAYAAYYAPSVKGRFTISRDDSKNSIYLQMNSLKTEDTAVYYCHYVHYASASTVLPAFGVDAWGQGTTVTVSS VL: DIVMTQSPLSLPVTPGEPASISCQASQELVHMNRNTYLHWYQQKPGQAPRLLIYKVSNRKPGVPDRFSGSGSGTDFTLKISRVEAEDVGVYYCAQGTSVPFTFGQGTKLEIK is ____.
OUTPUT: 0

INPUT: Item under review: H183/L072 VL S26W (antibody, name in Kabat numbering, V domains shown, Dual-Ig) VH: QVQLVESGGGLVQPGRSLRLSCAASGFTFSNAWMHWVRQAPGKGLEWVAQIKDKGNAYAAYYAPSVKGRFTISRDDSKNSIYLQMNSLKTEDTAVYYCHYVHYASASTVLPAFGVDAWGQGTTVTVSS VL: DIVMTQSPLSLPVTPGEPASISCQAWQELVHMNRNTYLHWYQQKPGQAPRLLIYKVSNRFPGVPDRFSGSGSGTDFTLKISRVEAEDVGVYYCAQGTSVPFTFGQGTKLEIK . Reported fold change of affinity?
OUTPUT: 0.1

INPUT: Bench note: what fold change of affinity did H183/L072 VL A89D (antibody, name in Kabat numbering, V domains shown, Dual-Ig) VH: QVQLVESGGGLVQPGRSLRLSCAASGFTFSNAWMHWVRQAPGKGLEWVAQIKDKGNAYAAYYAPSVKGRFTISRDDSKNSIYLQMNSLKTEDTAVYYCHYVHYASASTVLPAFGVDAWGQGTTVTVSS VL: DIVMTQSPLSLPVTPGEPASISCQASQELVHMNRNTYLHWYQQKPGQAPRLLIYKVSNRFPGVPDRFSGSGSGTDFTLKISRVEAEDVGVYYCDQGTSVPFTFGQGTKLEIK show?
OUTPUT: 0

INPUT: Record request: fold change of affinity value, item H183/L072 VL T92M (antibody, name in Kabat numbering, V domains shown, Dual-Ig) VH: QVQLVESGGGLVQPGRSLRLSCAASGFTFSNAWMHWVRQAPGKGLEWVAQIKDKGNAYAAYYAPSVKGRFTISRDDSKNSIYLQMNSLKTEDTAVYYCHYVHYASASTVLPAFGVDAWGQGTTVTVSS VL: DIVMTQSPLSLPVTPGEPASISCQASQELVHMNRNTYLHWYQQKPGQAPRLLIYKVSNRFPGVPDRFSGSGSGTDFTLKISRVEAEDVGVYYCAQGMSVPFTFGQGTKLEIK
OUTPUT: 0.4
